- System name: α1B (Cav2.2), β3 and α2δ subunits of the N-type calcium channel (stable HEK cell line) (Rattus norvegicus, UniProt Q02294)
- Test: Calcium-dye indicator assay (FDSS, KCl depolarization)
- Type: cell-based
- Condition: calcium mobilization response to 50 mM KCl; six-point concentration-response
pIC50: −log10 of the molar value.
Documented pIC50 across a set of compounds
Observable: pIC50

{"Compound": "CC1(C)CC(c2cc(-c3ccc(Cl)cc3)n(-c3ccccc3N3CCCC3)n2)CC(C)(C)O1", "Assay result": 7.00}
{"Compound": "COc1ccccc1-n1nc(C2CC(C)(C)OC(C)(C)C2)cc1-c1ccc(SC)cc1", "Assay result": 8.96}
{"Compound": "COc1ccccc1-n1nc(C2CC(C)(C)OC(C)(C)C2)cc1-c1ccc(C(C)O)cc1 (centres unmarked)", "Assay result": 7.72}
{"Compound": "COc1ccccc1-n1nc(C2CCOCC2)cc1-c1ccc(Cl)cc1", "Assay result": 7.51}
{"Compound": "CCOc1ccc(-c2cc(C3CC(C)(C)OC(C)(C)C3)nn2-c2ccccc2OC)cn1", "Assay result": 8.27}
{"Compound": "COc1ccccc1-n1nc(C2CC(C)(C)OC(C)(C)C2)cc1-c1ccc2c(c1)OCO2", "Assay result": 9.00}
{"Compound": "COc1ccccc1-n1nc(C2=C[C@H](C)O[C@@H](C)C2)cc1-c1ccc(Cl)cc1 (relative stereo)", "Assay result": 8.09}
{"Compound": "COc1ccccc1-n1nc(C2CC(C)(C)OC2(C)C)cc1-c1ccc(Cl)cc1 (centres unmarked)", "Assay result": 8.29}

* * *

- System name: α1B (Cav2.2), β3 and α2δ subunits of the N-type calcium channel (stable HEK cell line) (Rattus norvegicus)
- Test: Calcium-dye indicator assay (FDSS, KCl depolarization)
- Condition: calcium mobilization response to 50 mM KCl; six-point concentration-response
pIC50: −log10 of the molar value.
pIC50 below 8 gives class 0; pIC50 at or above it gives class 1.

{"Compound": "COc1ccccc1-n1nc(C2CC(C)(C)OC(C)(C)C2)cc1-c1ccncc1", "Answer label": "class 0"}
{"Compound": "COc1cccc(-c2cc(C3CC(C)(C)OC(C)(C)C3)nn2-c2ccccc2OC)c1", "Answer label": "class 1"}
{"Compound": "COc1ccccc1-n1nc(C2CC(C)(C)OC(C)(C)C2)c(Br)c1-c1ccc(Cl)cc1", "Answer label": "class 0"}
{"Compound": "COc1ccc(-n2nc(C3CCOC(C)(C)C3)cc2-c2ccc(Cl)cc2)c(C)c1 (stereo not shown)", "Answer label": "class 0"}
{"Compound": "COc1ccccc1-n1nc(C2CC(C)(C)OC(C)(C)C2)cc1-c1ccc2[nH]ccc2c1", "Answer label": "class 0"}
{"Compound": "COc1ccccc1-n1nc(C2CC(C)(C)OC(C)(C)C2)cc1-c1ccc(C(C)=O)cc1", "Answer label": "class 1"}
{"Compound": "Clc1ccc(-c2cc(C3CCOCC3)nn2-c2ccccc2Cl)cc1", "Answer label": "class 0"}
{"Compound": "COc1ccccc1-n1nc(C2CC(C)(C)OC(C)(C)C2)cc1-c1ccc(Cl)cc1", "Answer label": "class 1"}
{"Compound": "COc1ccccc1-n1nc(C2=CC(C)(C)OC(C)(C)C2)cc1-c1ccc(Cl)cc1", "Answer label": "class 1"}
{"Compound": "COc1ccccc1-n1nc(C2C[C@@H](C)O[C@H](C)C2)cc1-c1ccc(Cl)cc1 (relative stereo)", "Answer label": "class 1"}
{"Compound": "COc1ccccc1-n1nc(C2CC(C)(C)OC(C)(C)C2)cc1-c1ccc(C(C)(C)C)cc1", "Answer label": "class 1"}
{"Compound": "COc1ccccc1-n1nc(C2CC(C)(C)OC(C)(C)C2)cc1-c1ccc(Cl)cc1F", "Answer label": "class 1"}
{"Compound": "COc1ccccc1-n1nc(C2CC(C)(C)OC(C)(C)C2)cc1-c1ccc(C#N)cc1", "Answer label": "class 1"}
{"Compound": "CCN(CC)C(=O)c1ccc(-c2cc(C3CC(C)(C)OC(C)(C)C3)nn2-c2ccccc2OC)cc1", "Answer label": "class 0"}
{"Compound": "CCOc1ccc(-c2cc(C3CC(C)(C)OC(C)(C)C3)nn2-c2ccccc2OC)cc1", "Answer label": "class 1"}

* * *

- System name: α1B (Cav2.2), β3 and α2δ subunits of the N-type calcium channel (stable HEK cell line) (Rattus norvegicus, UniProt Q02294)
- Test: Calcium-dye indicator assay (FDSS, KCl depolarization)
- Condition: calcium mobilization response to 50 mM KCl; six-point concentration-response
pIC50: −log10 of the molar value.
Classify as follows. Reported pIC50 greater than or equal to 7: satisfied. Reported pIC50 below: not satisfied.

{"Structure smiles": "COc1ccc(-c2cc(C3CC(C)(C)OC(C)(C)C3)nn2-c2ccccc2OC)cc1OC", "Answer label": "satisfied"}
{"Structure smiles": "Clc1ccc(-c2cc(C3CCOCC3)nn2-c2c(Cl)cccc2Cl)cc1", "Answer label": "not satisfied"}
{"Structure smiles": "COc1ccccc1-n1nc(C2CC(C)(C)OC(C)(C)C2)cc1-c1ccc(N(C)C)cc1", "Answer label": "satisfied"}
{"Structure smiles": "CCN(CC)c1ccccc1-n1nc(C2CC(C)(C)OC(C)(C)C2)cc1-c1ccc(Cl)cc1", "Answer label": "satisfied"}
{"Structure smiles": "CC1(C)CC(c2cc(-c3ccc(Cl)cc3)n(-c3ccccc3N)n2)CC(C)(C)O1", "Answer label": "satisfied"}

* * *

- System name: α1B (Cav2.2), β3 and α2δ subunits of the N-type calcium channel (stable HEK cell line) (Rattus norvegicus, UniProt Q02294)
- Test: Calcium-dye indicator assay (FDSS, KCl depolarization)
- Condition: calcium mobilization response to 50 mM KCl; six-point concentration-response
- Procedure: A stable cell line (HEK parent) co-expressing the α1B (Cav2.2), β3 and α2δ subunits of the N-type calcium channel subunits was used. […] Calcium mobilization responses to KCl depolarization were evaluated by measuring the intensity of calcium-mediated fluorescent signal in the presence of BD Calcium Assay Dye (BD Biosciences, Franklin Lakes, N.J., U.S.A.), utilizing a Functional Drug Screening System (FDSS) by Hamamatsu Corporation (Bridgewater, N.J., U.S.A.). […]
Measured IC50 by item

{"Structure smiles": "COc1ccccc1-n1nc(C2CC(C)(C)OC(C)(C)C2)cc1-c1ccc(OCCN(C)C)cc1", "IC50": "770 nM"}
{"Structure smiles": "COc1ccccc1-n1nc(C2CC(C)(C)OC(C)(C)C2)cc1-c1cccs1", "IC50": "12 nM"}
{"Structure smiles": "COc1ccccc1-n1nc(C2CC(C)(C)OC(C)(C)C2)cc1-c1ccc(C)nc1", "IC50": "6.2 nM"}
{"Structure smiles": "COc1ccccc1-n1nc([C@H]2C[C@@H](C)O[C@@H](C)C2)cc1-c1ccc(Cl)cc1", "IC50": "2.5 nM"}
{"Structure smiles": "COc1ccccc1-n1nc(C2CC(C)(C)OC(C)(C)C2)cc1-c1ccnc(C)c1", "IC50": "82 nM"}

* * *

- System name: α1B (Cav2.2), β3 and α2δ subunits of the N-type calcium channel (stable HEK cell line) (Rattus norvegicus)
- Test: Calcium-dye indicator assay (FDSS, KCl depolarization)
- Assay type: cell-based
- Condition: calcium mobilization response to 50 mM KCl; six-point concentration-response

{"Molecule": "CCNc1ccccc1-n1nc(C2CC(C)(C)OC(C)(C)C2)cc1-c1ccc(Cl)cc1 [Compound 66]", "IC50 (nM)": 9.4}
{"Molecule": "COc1ccccc1-n1nc(C2=CC(C)(C)OC2(C)C)cc1-c1ccc(Cl)cc1 [Compound 97]", "IC50 (nM)": 13}
{"Molecule": "COc1ccccc1-n1nc(C2CC(C)(C)OC(C)(C)C2)cc1-c1ccccc1N [Compound 22]", "IC50 (nM)": 6}
{"Molecule": "COc1ccccc1-n1nc([C@H]2CCO[C@@H](C(C)C)C2)cc1-c1ccc(Cl)cc1 (relative stereo) [Compound 64]", "IC50 (nM)": 7.2}
